# assayed-system: PIK3CB
# measurement-context: ASO; also: test concentration or dose not given here
These antisense oligonucleotides have a phosphorothioate backbone; sugars and methylation of C are not fully specified.
The reader will find reported remaining target (mRNA or protein) (fraction of control) values listed item by item below.

Solved entries (count: 8):
CTGGAAGAAAAGGTCTGACA: ≥ 1
TAAACACGTCCTGGCAGTTT: ≥ 1
TTCACTTTAGTAGTCCAGCT: 0.89
CACACAGTTCCGGATATACT: ≥ 1
ATTAGTGGATGATCACCAAA: 0.99
TGCTATCTGTGAATCCACCG: 0.99
GAGGTTGAACATTGGGTAAT: 0.79
AACATTTGGAGTGTCAACAT: ≥ 1

Need remaining target (mRNA or protein) (fraction of control) of AATTGTGAACTTGCTTCCAT , thanks.
0.74

Item: ATGAACAGCTACGATGAGCT
0.73

Also, TATTGAGAAAGTTCTTCATC please.
0.86

Could you do the same for TGCCAATTCATTTACTTTGA , please?
≥ 1

Let us now turn to ACTATGTCTGTCACCAATCC
0.52

###

remaining target (mRNA or protein) (fraction of control) values, listed per item
# assayed-system: TNFRSF1A
# measurement-context: ASO
These antisense oligonucleotides have a phosphorothioate backbone; sugars and methylation of C are not fully specified.
Answer with a bare number; do not write a unit.

Recorded results for 3 sequences are shown here.
GAAGCCTGGAGTGGGACT: 0.52
CAGTCCGTATCCTGCCCC: 0.74
AAAGGCTCAGGGACGAAC: 0.58

Any idea what remaining target (mRNA or protein) (fraction of control) was measured for GCAGTGTGGCAGCGGCAG ?
0.47

One more sequence: GGTTGAGACTCGGGCATA
0.6

Next record, please: TCCGTGCTCGCCCCTGCC
0.81

How about AGTAGGTTCCTTTGTGGC ?
0.54

Continue with GACCCATTTCCTTTCGGC
0.74

###

# assayed-system: GNAS
# measurement-context: ASO
These antisense oligonucleotides have a phosphorothioate backbone; sugars and methylation of C are not fully specified.
Collected remaining target (mRNA or protein) (fraction of control) values appear next to each entry.
Give the value as a plain number.

// known answers, use as guide
TGCTGCTGCTGTTTTATTTA: 0.62
ACGGCGGATGTTCTCAGTGT: 0.71
TCATTTTATTTGTTTGCTGC: 0.75
TTTTATTTCATTTTATTTGT: 0.91
GGGTTCCCTTCTTAGAGCAG: 0.52

Entry under review: GCGCTGAATGATGTCACGGC . Reported remaining target (mRNA or protein) (fraction of control)?
0.38

Entry ATTTGGAACATCTAAGCAAG please
0.66

Check ATTTCATTTGTTTCTTTTAT too.
0.76

GTTTCGCAAAATCACTCGGG , same question.
0.5

Also need ATTTGTTTGCTGCTGCTGTT , thanks.
0.81

###

# assayed-system: PRKACA
# measurement-context: ASO
These antisense oligonucleotides have a phosphorothioate backbone; sugars and methylation of C are not fully specified.
API: label(entry) gives YES if the entry's remaining target (mRNA or protein) (fraction of control) is strictly smaller than 0.5; on equality or larger values it gives NO.

CACACAGGTTGAATCGCCCC: YES
TAGTTTTCAAATATGTTTAC: NO
TAGATGAGATCCAGCGAGTG: NO
TGGCTCCCCAGCGGCTCCCC: NO

Attention now shifts to the item below.
Criterion: remaining target (mRNA or protein) (fraction of control) strictly below 0.5. Is it met by GCGGCGGGTGCTGGCTGCGG ?
NO
